# Test target: Shank1 PDZ (Rattus norvegicus)
# Construct: His tag; made in house; host or cells: E. coli BL21
# Sequence (Q9WV48 653-765): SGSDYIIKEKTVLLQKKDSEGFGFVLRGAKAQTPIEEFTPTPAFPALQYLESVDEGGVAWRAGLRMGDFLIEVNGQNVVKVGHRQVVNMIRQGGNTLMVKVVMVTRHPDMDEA
# Assay summary: Isothermal titration calorimetry, Shank1 PDZ
# Format: binding
# Condition context: MicroCal VP-ITC, 25°C, 50 mM sodium phosphate, 200 mM NaCl, pH 7.4; single-binding-site model; [p1] = 4 mM/[Shank1 PDZ] = 400 μM; [p2] = 326 μM/43 μM; [p3] = 354 μM/35 μM (Fig 3A); read-out: dissociation constant Kd (ITC)
Ends that are not written are not given here.
Readout name: Kd (µM)
Kindly answer with a numeric value in µM, unit omitted.

query: # query: Kd of entry GSGSGDPAWDETNL-OH [p1]
result: 41

====

# Test target: Shank1 PDZ (Rattus norvegicus)
# Construct: His tag; made in house; host or cells: E. coli BL21
# Assay summary: Native mass spectrometry, Shank1 PDZ
# Format: binding
Numbered stars: 1 amine (or outer) side, 2 acyl side, 3 side chain; on linkers, the order of the positions; unused ones are H or OH. Bridge positions count the residues as written; N and C are the ends. I, II: the chains in the order shown. X1 = O=C1CC([*:1])C(=O)N1CCN(CCN1C(=O)CC([*:2])C1=O)CCN1C(=O)CC([*:3])C1=O
Readout name: Kd

query: I'm curious: which Kd was measured for I: Ac-CGSSGDPAWDETNL-OH / II: Ac-CGSSGDPAWDETNL-OH / III: Ac-CGSSGDPAWDETNL-OH (linker I:1-II:1-III:1 via X1) [p3] tested on Shank1 PDZ (Rattus norvegicus)?
result: ~4.5 µM

====

# Test target: Shank1 PDZ (Rattus norvegicus)
# Construct: His tag; made in house; host or cells: E. coli BL21
# Assay summary: Surface plasmon resonance, immobilized Shank1 PDZ
# Assay type: binding
# Condition context: Biacore 3000, 25°C, HBS-EP pH 7.4, Shank1 PDZ coupled on CM5 chip; steady state affinity model, n = 1; read-out: dissociation constant (SPR, steady state affinity model)
Ends that are not written are not given here.
Readout name: Kd (µM)
Kindly answer with a numeric value in µM, unit omitted.

query: # query: Kd of entry GSGSGDPAWDETNL-OH [p1]
result: 45
